Measured values drawn from patent US20160207996A1 for this set.

Target: T1, hNav1.7-loopB1-C1-D1-llama Fc (human)
T1 construct: whole entry: loops B1, C1, D1 joined by linkers, llama Fc; also called hNav1.7-loopB1-C1-D1-llfc
T1 chain: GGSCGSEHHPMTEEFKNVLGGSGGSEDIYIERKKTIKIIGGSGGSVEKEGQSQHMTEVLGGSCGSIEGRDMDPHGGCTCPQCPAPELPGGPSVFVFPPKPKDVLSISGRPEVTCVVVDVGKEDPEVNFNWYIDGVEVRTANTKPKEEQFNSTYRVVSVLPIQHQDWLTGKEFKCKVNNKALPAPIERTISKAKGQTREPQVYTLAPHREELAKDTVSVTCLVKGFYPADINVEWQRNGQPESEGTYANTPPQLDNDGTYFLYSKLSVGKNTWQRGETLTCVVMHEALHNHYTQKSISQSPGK
Experiment: ELISA, coated loop-B1-C1-D1-llama Fc 20 ng/well, mAb titrated
endpoint: pEC50
Give bare numbers, as −log10 of the molar value.

Some solved cases for reference:
INSERT INTO results (binder, endpoint, assay_value) VALUES
  ('9H4 (antibody, human IgG1, V domains shown) VH: EVQLVQPGAELRNPGASVKVSCKASGYIFTSAYIDWVRQAPGQGLEWMGRIDPEDGETRYAHQFRDRVTFTADTSTSTVYAELNSLRSEDTAVYYCAITIEGFWGQGTQVTVSS VL: ATMLTQSPGSLSVVPGESASISCKTSRSLVHSDGKTYLSWLLQKPGQSPQRLIYQVSNRGSGVPDRFTGSGSGTDFTLKISGVKAEDAGVYYCAQATYYPLSFGSGTRVEIK', 'pEC50', 9.72),
  ('9C3 (antibody, V domains shown, chimeric llama-human, human IgG1 constant domains) VH: EVQLVQPGAELRNPGTSVKVSCKTSGYYFTSSDIQWVRQAPAQGLEWMGRIDPEDGATKYAPKFQGRVTFTADTFTRTAYVELSNLRSDDTAVYYCMTAGGEYWGKGTLVTVSS VL: QPVLNQPSALSVSLGQTARITCQGGDFRNYYNNWYQQKPGQAPVLVIYEDSERPSGIPERFSGSSSGDTVILTVSRVQADDEADYYCQSSDSTDNAVFGGGTHLTVL', 'pEC50', 9.77),
  ('9C12 (antibody, V domains shown, chimeric llama-human, human IgG1 constant domains) VH: EVQLVQPGAEVRRPGAAVKVSCKASGFALISSYIDWVRQAPGQGLEWMGRIDPEDGGTSYAQKFQGRVTVTVDTATSTVYVELSSLRSDDTGVYFCMVGDSGYWGQGTQVTVSS VL: ATMLTQSPASLSVVPGESASISCKASQSLVHSDGKTYLYWLLQKPGQSPQRLIYQVSNRGSGVPDRFTGSGSGTDFTLKISGVKAEDAGVYYCAQHTYYPPSFGSGTRLEIK', 'pEC50', 9.66),
  ('9A1 (antibody, V domains shown, chimeric llama-human, human IgG1 constant domains) VH: EVQLVQPGAELRNPGASVKVSCKASGDTFTDYYIHWVRQAPGQGLEWMGRIDPEDGGTKYTQKFQGRVTFTADTSTSTVYLELDSLRSEDTAVYYCVGDMDYWGKGTLVTVSS VL: QTVVTQEPSLSVSPGGTVTLTCGLSSGSVTFGNYPSWYQQTPGQAPRTLIYTTNSRHSGVPSRFSGSISGNKATLTISGAQPEDEADFYCALSRVSGTYGTVFGGGTHLTVL', 'pEC50', 9.48),
  ('9F10 (antibody, human IgG1, V domains shown) VH: EVQLVQPGAEVRRPGAAVKVSCKASGFALISSYIDWVRQAPGQGLEWMGRIDPEDGGTSYAQKFQGRVTVTVDTATSTVYVELSSLRSDDTGVYFCMVGDSGYWGQGTQVTVSS VL: ATMLTQSPGSLSVGPGESASISCKAGQSLTHPNGKTYLSWLLQKPGQSPRRLIYETSNRDPGVPDRFTGSGSGTDFTLRIVGVTVEDAGVYYCAQTTYFPIAFGQGTKVELK', 'pEC50', 10.09);

# ---- query binder ----
Identify pEC50 associated with the binder 9A11 (antibody, human IgG1, V domains shown) VH: EVQLVQPGAEVRRPGAAVKVSCKASGFALISSYIDWVRQAPGQGLEWMGRIDPEDGGTSYAQKFQGRVTVTVDTATSTAYVELSSLRSDDTGVYFCMVGDSGYWGQGTQVTVSS VL: ATMLTQSPGSLSVVPGESASISCKASQSLVHTDGKTYLSWLLQKPGQSPQRLIYQVSTRGSGVPDRVTGSGSGTDFTLKISGVKAEDAGVYYCAQTTYYPPTFGQGTKVELK
10.04
